Test system: EKVX NSCLC
Test: NCI tumour cell line growth inhibition, 48 h
Listing of recorded GI50 by entry.
Value Kind: GI50

Compound | Result
C=CC(=O)N1CCN(c2nc(OC[C@@H]3CCCN3C)nc3c(F)c(-c4nc(N)cc(C)c4C(F)(F)F)c(Cl)cc23)[C@@H](C)C1 | 1.98 µM
Cc1nc2ccccc2c(/C=C/c2ccc(C(F)(F)F)cc2)c1C(=O)/C=C/c1ccccc1 | 1.61 µM
C=CCC(NCc1ccccc1)c1cn(C(=O)OCC)c2ccccc12 (stereo unspecified) | 20.7 µM
O=C1CC[C@@H]2[C@H]3CCC(=O)c4c3c(c3cccc(O)c3c4O)O[C@@]23C(=O)c2cccc(O)c2C(O)=C13 | > 100 µM
Cc1ccc(-c2csc3ncnc(Nc4cccc(O)c4)c23)cc1 | 37.8 µM
CCOC(=O)c1ccc(N[C@@H]2c3cc4c(cc3C(c3cc(OC)c(O)c(OC)c3)[C@H]3C(=O)OCC32)OCO4)cc1 (stereo partly specified) | 0.591 µM
Cc1nc2sc(C(=O)Nc3cccc4c3OCCO4)c(N)c2cc1C(C)O (stereo unspecified) | > 100 µM
Cc1cc(N)c2cc(NC(=O)/C=C\c3ccccc3Cl)ccc2n1 | 1.53 µM
CC(=O)OC1C(C)OC(Oc2c(-c3ccc(O)cc3)oc3cc(O)cc(O)c3c2=O)C(O)C1OC(C)=O (stereo unspecified) | 54.2 µM
CCOC(=O)c1nc2sc(Cl)cn2c1/C=N/N=C(N)N | 26.1 µM
Nc1ncnc2occ(-c3ccc(NC(=O)Nc4cccc(C(F)(F)F)c4)cc3)c12 | 4.46 µM
